# settings: in ethylene glycol, 323.15 K

- molecular_string: "Nc1ccc(Cl)cc1[N+](=O)[O-]"
  solubility (mole fraction): 0.0158

* * *

# settings: in ethanol, 293.15 K
property_name: solubility (mole fraction)

- molecular_string: "Nc1ccc(Cl)cc1[N+](=O)[O-]"
  property_name: "solubility (mole fraction)"
  measured_value: 0.0194

* * *

# settings: in NMP, 308.15 K

- molecular_string: "Nc1ccc(Cl)cc1[N+](=O)[O-]"
  solubility (mole fraction): 0.142

* * *

# settings: in ethanol, 313.15 K
property_name: solubility (mole fraction)

- molecular_string: "Nc1ccc(Cl)cc1[N+](=O)[O-]"
  property_name: "solubility (mole fraction)"
  measured_value: 0.0371

Recorded values, source BigSolDB 2.1.
